System: HIV-2(ROD)
Test: Inhibition of HIV-2 (ROD)-induced cytopathicity (giant cell formation) in CEM cells
Type: cell-based
Conditions: read-out: EC50 HIV-2 (concentration required to inhibit HIV-induced giant cell formation by 50%); HIV-2, CEM cell cultures
pEC50: −log10 of the molar value.
Label rule, in plain words: pEC50 of 5 and up is rule met, under 5 is rule not met.

Q. Textbook exercise: given the entry CCCCCCCCCCNC(=O)C(N)CCCCNC(=O)C1NC(=O)C2NC(=O)C(NC(=O)C3NC(=O)C4NC(=O)C(Cc5ccc(c(Cl)c5)Oc5cc3cc(c5O)Oc3ccc(cc3Cl)C2O)NC(=O)C(N)c2ccc(O)c(c2)Oc2cc(O)cc4c2)c2ccc(O)c(c2)-c2c(O)cc(O)cc21 (centres unmarked) , state whether its pEC50 is greater than or equal to 5.
A. rule met

Q. Textbook exercise: given the entry NC(=O)CC1NC(=O)C(N)C(O)c2ccc(c(Cl)c2)Oc2cc3cc(c2O)Oc2ccc(cc2)C(O)C2NC(=O)C(NC(=O)C3NC1=O)c1ccc(O)c(c1)-c1c(O)cc(O)cc1C(C(=O)NCc1ccc(F)cc1)NC2=O (centres unmarked) , state whether its pEC50 is greater than or equal to 5.
A. rule not met

Q. Textbook exercise: given the entry CCCCc1ccc(CNC2C(Oc3c4cc5cc3Oc3ccc(cc3Cl)C(O)C3NC(=O)C(NC(=O)C5NC(=O)C5NC(=O)C(Cc6ccc(cc6)O4)NC(=O)C(NC)c4ccc(O)c(c4)Oc4cc(O)c(Cl)c5c4)c4ccc(O)c(c4)-c4c(cc(O)c(CN5CCN(Cc6ccc(-c7ccccc7)cc6)CC5)c4O)C(C(=O)NCCCN(C)C)NC3=O)OC(C(=O)NCCCN(C)C)C(O)C2O)cc1 (centres unmarked) , state whether its pEC50 is greater than or equal to 5.
A. rule not met

Q. Textbook exercise: given the entry CCCCCCCCCC[N+](C)(C)CCCNC(=O)C1NC(=O)C2NC(=O)C(NC(=O)C3NC(=O)C(CC(N)=O)NC(=O)C(NC(=O)C(CC(C)C)NC)C(O)c4ccc(c(Cl)c4)Oc4cc3cc(c4OC3OC(CO)C(O)C(O)C3OC3CC(C)(N)C(O)C(C)O3)Oc3ccc(cc3Cl)C2O)c2ccc(O)c(c2)-c2c(O)cc(O)cc21 (centres unmarked) , state whether its pEC50 is greater than or equal to 5.
A. rule not met

Q. Textbook exercise: given the entry CNC(=O)C1NC(=O)C2NC(=O)C(NC(=O)C3NC(=O)C(CC(N)=O)NC(=O)C(NC(=O)C(CC(C)C)N(C)C(=O)OC(C)(C)C)C(O)c4ccc(c(Cl)c4)Oc4cc3cc(c4O)Oc3ccc(cc3)C2O)c2ccc(O)c(c2)-c2c1cc(O)c(CN1CCN(Cc3ccc(-c4ccccc4)cc3)CC1)c2O (centres unmarked) , state whether its pEC50 is greater than or equal to 5.
A. rule met

Q. Textbook exercise: given the entry CCCCOc1ccc(CNC2C(Oc3c4cc5cc3Oc3ccc(cc3Cl)C(O)C3NC(=O)C(NC(=O)C5NC(=O)C5NC(=O)C(Cc6ccc(cc6)O4)NC(=O)C(N(C)Cc4ccc(OCCCC)cc4)c4ccc(O)c(c4)Oc4cc(O)c(Cl)c5c4)c4ccc(O)c(c4)-c4c(O)cc(O)cc4C(C(=O)NCCCN(C)C)NC3=O)OC(C(=O)NCCCN(C)C)C(O)C2O)cc1 (centres unmarked) , state whether its pEC50 is greater than or equal to 5.
A. rule not met

Q. Textbook exercise: given the entry CCCCc1ccc(CN2CCN(Cc3c(O)cc4c(c3O)-c3cc(ccc3O)C3NC(=O)C5NC(=O)C6NC(=O)C(Cc7ccc(c(Cl)c7)Oc7cc5cc(c7O)Oc5ccc(cc5Cl)C(O)C(NC3=O)C(=O)NC4C(=O)NCCCN(C)C)NC(=O)C(N)c3ccc(O)c(c3)Oc3cc(O)cc6c3)CC2)cc1 (centres unmarked) , state whether its pEC50 is greater than or equal to 5.
A. rule met

Q. Textbook exercise: given the entry NC1C(=O)NC2Cc3ccc(c(Cl)c3)Oc3cc4cc(c3O)Oc3ccc(cc3Cl)C(O)C3NC(=O)C(NC(=O)C4NC(=O)C(NC2=O)c2cc(O)cc(c2)Oc2cc1ccc2O)c1ccc(O)c(c1)-c1c(cc(O)c(CNC2C4CC5CC(C4)CC2C5)c1O)C(C(=O)NC1C2CC4CC(C2)CC1C4)NC3=O (centres unmarked) , state whether its pEC50 is greater than or equal to 5.
A. rule met

Q. Textbook exercise: given the entry CCCCCCCCCC[N+](C)(C)CCCNCc1c(O)cc2c(c1O)-c1cc(ccc1O)C1NC(=O)C3NC(=O)C4NC(=O)C(Cc5ccc(c(Cl)c5)Oc5cc3cc(c5O)Oc3ccc(cc3Cl)C(O)C(NC1=O)C(=O)NC2C(=O)NCCO)NC(=O)C(N)c1ccc(O)c(c1)Oc1cc(O)cc4c1 (centres unmarked) , state whether its pEC50 is greater than or equal to 5.
A. rule met

Q. Textbook exercise: given the entry NC(=O)CC1NC(=O)C(N)C(O)c2ccc(c(Cl)c2)Oc2cc3cc(c2O)Oc2ccc(cc2)C(O)C2NC(=O)C(NC(=O)C3NC1=O)c1ccc(O)c(c1)-c1c(O)cc(O)cc1C(C(=O)N1CCC3CCCCC3C1)NC2=O (centres unmarked) , state whether its pEC50 is greater than or equal to 5.
A. rule met

Q. Textbook exercise: given the entry CCCCCCCCCC[N+](C)(C)CCCNCc1c(O)cc2c(c1O)-c1cc(ccc1O)C1NC(=O)C3NC(=O)C4NC(=O)C(Cc5ccc(cc5)Oc5cc3cc(c5OC3OC(C(=O)O)C(O)C(O)C3N)Oc3ccc(cc3Cl)C(O)C(NC1=O)C(=O)NC2C(=O)O)NC(=O)C(NC)c1ccc(O)c(c1)Oc1cc(O)c(Cl)c4c1 (centres unmarked) , state whether its pEC50 is greater than or equal to 5.
A. rule not met

Recorded values, source patent US20050250677A1.
